Measured target: DNA-dependent protein kinase catalytic subunit (Homo sapiens, UniProt P78527)
Sequence (P78527 whole entry): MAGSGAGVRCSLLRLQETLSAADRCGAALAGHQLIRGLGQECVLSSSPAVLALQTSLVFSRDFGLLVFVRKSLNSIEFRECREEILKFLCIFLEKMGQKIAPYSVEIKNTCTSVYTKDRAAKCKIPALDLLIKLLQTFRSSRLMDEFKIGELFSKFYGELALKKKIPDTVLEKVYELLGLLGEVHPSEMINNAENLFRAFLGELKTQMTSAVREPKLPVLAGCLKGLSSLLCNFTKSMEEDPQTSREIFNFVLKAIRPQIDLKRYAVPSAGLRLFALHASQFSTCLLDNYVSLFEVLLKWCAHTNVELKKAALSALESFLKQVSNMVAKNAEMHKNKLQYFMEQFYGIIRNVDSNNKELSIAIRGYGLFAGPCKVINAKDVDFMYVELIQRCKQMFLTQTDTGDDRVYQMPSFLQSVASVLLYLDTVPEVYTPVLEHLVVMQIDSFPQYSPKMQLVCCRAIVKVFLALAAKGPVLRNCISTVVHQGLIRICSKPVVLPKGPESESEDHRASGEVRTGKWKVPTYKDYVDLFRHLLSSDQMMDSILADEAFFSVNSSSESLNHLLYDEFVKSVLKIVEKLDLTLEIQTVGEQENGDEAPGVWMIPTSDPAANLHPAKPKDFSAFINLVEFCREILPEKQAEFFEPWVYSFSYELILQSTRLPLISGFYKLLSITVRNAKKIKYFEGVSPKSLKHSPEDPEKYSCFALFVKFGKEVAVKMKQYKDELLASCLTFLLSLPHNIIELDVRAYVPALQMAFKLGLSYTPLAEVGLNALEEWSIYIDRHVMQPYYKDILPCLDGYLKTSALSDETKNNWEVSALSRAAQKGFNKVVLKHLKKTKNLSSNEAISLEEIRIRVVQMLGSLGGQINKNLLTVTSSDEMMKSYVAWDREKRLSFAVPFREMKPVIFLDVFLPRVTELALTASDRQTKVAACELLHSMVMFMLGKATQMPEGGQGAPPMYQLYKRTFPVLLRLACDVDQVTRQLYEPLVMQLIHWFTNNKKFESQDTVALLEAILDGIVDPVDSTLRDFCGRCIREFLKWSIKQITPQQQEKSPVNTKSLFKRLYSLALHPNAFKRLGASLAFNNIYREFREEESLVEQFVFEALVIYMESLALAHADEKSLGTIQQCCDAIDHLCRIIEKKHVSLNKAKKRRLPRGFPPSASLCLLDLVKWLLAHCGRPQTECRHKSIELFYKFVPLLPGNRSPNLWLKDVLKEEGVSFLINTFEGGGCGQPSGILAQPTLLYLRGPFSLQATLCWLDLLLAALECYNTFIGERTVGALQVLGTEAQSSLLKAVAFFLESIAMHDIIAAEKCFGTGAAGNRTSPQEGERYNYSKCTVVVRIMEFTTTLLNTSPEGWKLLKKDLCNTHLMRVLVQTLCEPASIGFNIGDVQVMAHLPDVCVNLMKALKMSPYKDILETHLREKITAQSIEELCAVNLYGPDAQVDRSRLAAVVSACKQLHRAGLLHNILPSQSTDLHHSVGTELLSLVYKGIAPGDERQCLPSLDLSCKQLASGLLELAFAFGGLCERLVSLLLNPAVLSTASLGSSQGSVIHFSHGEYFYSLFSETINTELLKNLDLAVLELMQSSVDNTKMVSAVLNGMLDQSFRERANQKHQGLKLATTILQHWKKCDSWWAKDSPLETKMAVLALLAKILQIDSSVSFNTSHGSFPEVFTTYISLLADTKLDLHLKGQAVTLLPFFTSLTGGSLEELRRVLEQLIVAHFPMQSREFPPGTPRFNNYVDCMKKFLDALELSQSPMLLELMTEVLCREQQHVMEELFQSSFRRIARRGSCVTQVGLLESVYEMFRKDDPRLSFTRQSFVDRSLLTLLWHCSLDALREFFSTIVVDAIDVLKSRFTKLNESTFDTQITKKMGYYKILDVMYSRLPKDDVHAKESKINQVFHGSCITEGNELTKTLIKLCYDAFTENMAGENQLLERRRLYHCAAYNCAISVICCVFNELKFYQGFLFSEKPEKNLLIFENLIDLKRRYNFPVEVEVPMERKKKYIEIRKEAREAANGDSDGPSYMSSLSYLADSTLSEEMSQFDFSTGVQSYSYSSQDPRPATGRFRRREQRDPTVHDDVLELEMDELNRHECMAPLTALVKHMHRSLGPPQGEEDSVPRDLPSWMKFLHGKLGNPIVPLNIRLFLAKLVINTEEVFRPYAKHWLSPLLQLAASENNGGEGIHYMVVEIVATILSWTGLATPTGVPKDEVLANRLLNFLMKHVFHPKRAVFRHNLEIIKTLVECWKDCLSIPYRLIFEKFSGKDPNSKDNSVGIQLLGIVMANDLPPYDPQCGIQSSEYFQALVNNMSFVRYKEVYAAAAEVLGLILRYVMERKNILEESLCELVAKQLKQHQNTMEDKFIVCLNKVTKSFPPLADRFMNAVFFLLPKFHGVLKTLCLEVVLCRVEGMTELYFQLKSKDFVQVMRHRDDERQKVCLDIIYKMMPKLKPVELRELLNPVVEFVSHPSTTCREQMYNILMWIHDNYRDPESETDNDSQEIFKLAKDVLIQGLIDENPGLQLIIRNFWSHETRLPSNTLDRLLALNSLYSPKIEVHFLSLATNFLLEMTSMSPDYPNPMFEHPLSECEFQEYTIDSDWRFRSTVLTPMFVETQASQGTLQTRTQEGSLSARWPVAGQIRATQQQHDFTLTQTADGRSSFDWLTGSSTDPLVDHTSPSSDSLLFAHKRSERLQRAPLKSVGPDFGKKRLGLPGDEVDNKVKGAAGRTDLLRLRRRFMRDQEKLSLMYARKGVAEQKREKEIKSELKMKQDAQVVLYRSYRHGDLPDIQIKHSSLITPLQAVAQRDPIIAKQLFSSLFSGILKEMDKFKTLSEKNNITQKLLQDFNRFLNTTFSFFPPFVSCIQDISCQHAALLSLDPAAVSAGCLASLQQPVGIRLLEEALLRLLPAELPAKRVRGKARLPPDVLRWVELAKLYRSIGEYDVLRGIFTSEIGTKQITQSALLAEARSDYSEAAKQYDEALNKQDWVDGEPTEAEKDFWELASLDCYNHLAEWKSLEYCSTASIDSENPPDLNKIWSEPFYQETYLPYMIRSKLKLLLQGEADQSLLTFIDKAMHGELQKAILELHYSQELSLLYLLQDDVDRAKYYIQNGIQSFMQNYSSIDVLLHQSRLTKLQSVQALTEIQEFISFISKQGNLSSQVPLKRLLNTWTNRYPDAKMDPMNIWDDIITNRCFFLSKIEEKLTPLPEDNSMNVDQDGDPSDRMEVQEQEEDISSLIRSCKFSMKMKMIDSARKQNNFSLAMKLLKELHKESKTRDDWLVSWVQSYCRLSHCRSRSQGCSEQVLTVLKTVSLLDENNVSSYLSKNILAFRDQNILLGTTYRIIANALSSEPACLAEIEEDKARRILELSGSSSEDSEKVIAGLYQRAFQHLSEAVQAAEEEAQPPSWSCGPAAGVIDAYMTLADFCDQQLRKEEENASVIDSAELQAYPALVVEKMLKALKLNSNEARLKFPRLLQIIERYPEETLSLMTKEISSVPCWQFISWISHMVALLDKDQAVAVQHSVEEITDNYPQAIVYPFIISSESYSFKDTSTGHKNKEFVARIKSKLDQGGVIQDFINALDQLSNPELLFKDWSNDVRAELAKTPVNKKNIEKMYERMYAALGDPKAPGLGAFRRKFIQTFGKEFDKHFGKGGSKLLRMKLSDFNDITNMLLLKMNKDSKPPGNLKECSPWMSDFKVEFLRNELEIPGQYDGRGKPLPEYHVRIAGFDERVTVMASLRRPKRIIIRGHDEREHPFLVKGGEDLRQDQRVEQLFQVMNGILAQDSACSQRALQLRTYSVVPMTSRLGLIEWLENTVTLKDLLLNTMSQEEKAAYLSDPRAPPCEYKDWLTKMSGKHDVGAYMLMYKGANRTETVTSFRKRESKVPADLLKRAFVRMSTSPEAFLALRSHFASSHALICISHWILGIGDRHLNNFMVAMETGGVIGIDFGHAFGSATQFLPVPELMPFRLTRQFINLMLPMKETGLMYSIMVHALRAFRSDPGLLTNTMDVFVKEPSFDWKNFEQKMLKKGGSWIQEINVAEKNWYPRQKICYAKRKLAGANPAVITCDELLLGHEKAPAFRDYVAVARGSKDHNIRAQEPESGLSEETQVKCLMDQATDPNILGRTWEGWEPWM
Test description: Inhibition of purified recombinant human full-length DNA-PK using EPPLSQEAFADLWKKK peptide as substrate measured after 2 hrs in presence of [gamma-33P] ATP by microbeta liquid scintillation counting analysis
Kindly state Ki for each of the entries shown.

Supply measured Ki of "CC(C)S(=O)(=O)c1ccc(-c2cnc(N)c(-c3nc(-c4ccccc4)no3)n2)cc1" in your reply.
> 1.6 µM

Supply measured Ki of "CC(C)S(=O)(=O)c1ccc(-c2cnc(N)c(-c3cn(-c4ccccc4)nn3)n2)cc1" in your reply.
> 4 µM

Supply measured Ki of "CC(C)S(=O)(=O)c1ccc(-c2cnc(N)c(-c3cc(-c4ccc(CNC5CCOCC5)cc4)no3)n2)cc1" in your reply.
> 4 µM

Supply measured Ki of "CC(C)S(=O)(=O)c1ccc(-c2cnc(N)c(-c3ncc(-c4ccccc4)o3)n2)cc1" in your reply.
> 4 µM

Supply measured Ki of CNCc1ccc(-c2cc(-c3nc(-c4ccc(S(=O)(=O)C(C)C)cc4)cnc3N)on2)cc1 [BERZOSERTIB] in your reply.
> 4 µM
